Measurement record for PD-L1 (Homo sapiens (Human)); quantity recorded: pIC50.
pIC50: −log10 of the molar value.

COc1nc(OCc2cccc(COc3ccc(CNCCNC(C)=O)c(OC)n3)c2C)ccc1CNCCNC(C)=O [Compound 19]	6.00 to 7.00
CNC(=O)CNCc1ccc(OCc2cccc(-c3cccc(COc4ccc(CNCC(=O)NC)c(OC)n4)c3Cl)c2Cl)nc1OC [Compound 77]	> 8.00
COc1nc(OCc2cccc(-c3cccc(COc4ccc(CNC5(C(=O)O)CC5)c(OC)n4)c3C)c2C)ccc1CNC1(C(=O)O)CC1 [Compound 37]	> 8.00

Read the next record carefully.
Exercise: Test system PD-L1 (Homo sapiens (Human)); read-out pIC50; what value for COc1nc(OCc2cccc(-c3cccc(COc4ccc(CNC(CCO)C(=O)O)c(OC)n4)c3C)c2C)ccc1CNC(CCO)C(=O)O (stereo not shown) [Compound 67] ?
Key: > 8.00

###

Measurement record for PD-L1 (Homo sapiens (Human), UniProt Q9NZQ7); quantity recorded: IC50.

COc1cc(OCc2cccc(-c3cccc(CO)c3C)c2C)cc(OC)c1CNCCNC(C)=O [Compound 10]	> 1000 nM
COc1nc(OCc2cccc(-c3cccc(COc4ccc(CN5CC(CC#N)C5)c(OC)n4)c3C)c2C)ccc1CN1CC(CC#N)C1 [Compound 61]	10 to 100 nM
COc1nc(OCc2cccc(-c3cccc(COc4ccc(CN[C@H](C(=O)O)[C@@H](C)O)c(OC)n4)c3C)c2C)ccc1CN[C@H](C(=O)O)[C@@H](C)O [Compound 51]	< 10 nM
COc1nc(OCc2cccc(-c3cccc(COc4ccc(CN5CCC5C(=O)O)c(OC)n4)c3C)c2C)ccc1CN1CCC1C(=O)O (stereo not shown) [Compound 35]	< 10 nM
COc1nc(OCc2cccc(-c3cccc(COc4ccc(CN5CCCC[C@@H]5C(=O)O)c(OC)n4)c3C)c2C)ccc1CN1CCCC[C@@H]1C(=O)O [Compound 27]	< 10 nM
COc1nc(OCc2cccc(-c3cccc(CO)c3C)c2C)ccc1CCN [Compound 15]	100 to 1000 nM

Read the next record carefully.
Exercise: Test system PD-L1 (Homo sapiens (Human), UniProt Q9NZQ7); read-out IC50; what value for COc1nc(OCc2cccc(-c3cccc(COc4ccc(CNCCNC(C)=O)c(OC)n4)c3C)c2)ccc1CNCCNC(C)=O [Compound 28] ?
Key: 10 to 100 nM

###

Measurement record for PD-L1 (Homo sapiens (Human)); quantity recorded: IC50.

COc1nc(OCc2cccc(-c3cccc(COc4ccc(CN5CCC(CC#N)CC5)c(OC)n4)c3C)c2C)ccc1CN1CCC(CC#N)CC1	10 to 100 nM
Cc1c(CO)cccc1-c1cccc(COc2cccc(N)n2)c1C	> 1000 nM
COc1nc(OCc2sc(C)c(COc3ccc(CNCCNC(C)=O)c(OC)n3)c2C)ccc1CNCCNC(C)=O	> 1000 nM
COc1nc(OCc2cccc(COc3ccc(CNCCNC(C)=O)c(OC)n3)n2)ccc1CNCCNC(C)=O	> 1000 nM
COc1nc(OCc2cccc(-c3cccc(COc4ccc(CN5C[C@@H](F)C[C@H]5C(=O)O)c(OC)n4)c3Cl)c2Cl)ccc1CN1CCC(C(F)F)C1 (stereo partly shown)	< 10 nM
COc1nc(OCc2cccc(-c3cccc(COc4ccc(CNC5CCOC5=O)c(OC)n4)c3C)c2C)ccc1CNC1CCOC1=O (stereo not shown)	10 to 100 nM
COc1nc(OCc2cccc(-c3cccc(COc4ccc(CN5CC(O)C(CC#N)C5)c(OC)n4)c3C)c2C)ccc1CN1CC(O)C(CC#N)C1 (stereo not shown)	< 10 nM
CNS(=O)(=O)CCNCc1ccc(OCc2cccc(-c3cccc(COc4ccc(CNCCS(=O)(=O)NC)c(OC)n4)c3Cl)c2Cl)nc1OC	10 to 100 nM

Exercise: Find the recorded IC50 belonging to "COc1nc(OCc2cccc(-c3cccc(COc4ccc(CN5C[C@@H](O)C[C@H]5C(=O)O)c(OC)n4)c3Cl)c2Cl)ccc1CO" and report it.
Key: 10 to 100 nM

Exercise: Find the recorded IC50 belonging to "COc1nc(OCc2cccc(-n3nnc(COc4ccc(CNCCNC(C)=O)c(OC)n4)c3C)c2C)ccc1CNCCNC(C)=O" and report it.
Key: > 1000 nM

Exercise: Find the recorded IC50 belonging to "COC(=O)[C@@H]1C[C@H](O)CN1Cc1ccc(OCc2cccc(-c3cccc(COc4ccc(CN5C[C@@H](O)C[C@H]5C(=O)OC)c(OC)n4)c3Cl)c2Cl)nc1OC" and report it.
Key: 100 to 1000 nM

Exercise: Find the recorded IC50 belonging to "COC(=O)[C@@H]1C[C@H](O)CN1Cc1ccc(OCc2cccc(-c3cccc(COc4ccc(CN5C[C@@H](O)C[C@H]5C(=O)OC)c(OC)n4)c3C)c2C)nc1OC" and report it.
Key: 10 to 100 nM

Exercise: Find the recorded IC50 belonging to "COc1nc(OCc2cccc(-c3cccc(COc4ccc(CN5CC[C@H](NC(C)=O)C5)c(OC)n4)c3C)c2C)ccc1CN1CC[C@H](NC(C)=O)C1" and report it.
Key: 10 to 100 nM
